// provenance: ChEMBL document CHEMBL2346503

Organism: Rattus norvegicus
measurement notes: Selectivity ratio of Ki for rat liver sigma2 receptor to rat brain sigma1 receptor
parameter: Ratio Ki

Example cases with answers are listed next.
compound_smiles=COc1ccc(CN2CCC3(CC2)OCc2ccccc23)cc1 recorded_value=162
compound_smiles=Fc1ccc(CN2CCC3(CC2)OCc2ccccc23)cc1 recorded_value=182
compound_smiles=FCCOc1ccc(CN2CCC3(CC2)OCc2ccccc23)cc1 recorded_value=350
compound_smiles=Ic1ccc(CN2CCC3(CC2)OCc2ccccc23)cc1 recorded_value=123
compound_smiles=FCCOCCOCCOc1ccc(CN2CCC3(CC2)OCc2ccccc23)cc1 recorded_value=16

[A] FCCOCCOc1ccc(CN2CCC3(CC2)OCc2ccccc23)cc1
[B] FCCOc1ccc(CN2CCC3(CC2)OCc2ccccc23)cn1
[Q] // compare measured Ratio Ki between A and B ; output the lower one Choose, then provide that item's label.
[A] A
